The following compounds each carry a recorded IC50 for Dipeptidyl peptidase 8 (Homo sapiens, UniProt Q6V1X1).

# count of solved cases: 4
In [3]: df
Out[3]:
                                   compound  experimental_value
0  N[C@@H](C[C@@H](Cc1ccccc1)NCc1ccc(Cl)cc1)C(=O)N1CCCCC1            > 500 µM
1  CC(C)[C@@H](C[C@H](N)C(=O)N1CCCCC1)NCc1ccc(Cl)cc1            > 100 µM
2  N[C@@H](C[C@H](Cc1ccccc1)NCc1ccc(Cl)cc1)C(=O)N1CCCCC1            > 100 µM
3  CCC(C)[C@@H](C[C@H](N)C(=O)N1CCCCC1)NCc1ccc(Cl)cc1 (stereo not given in full)            > 100 µM

Kindly review the next compound as well.
Q: Recorded IC50 for CC[C@@H](C[C@H](N)C(=O)N1CCCCC1)NCc1ccc(Cl)cc1 , please?
Result: > 100 µM

* * *

assay_system: Dipeptidyl peptidase 4 (Homo sapiens, UniProt P27487)
Sequence (P27487 whole entry): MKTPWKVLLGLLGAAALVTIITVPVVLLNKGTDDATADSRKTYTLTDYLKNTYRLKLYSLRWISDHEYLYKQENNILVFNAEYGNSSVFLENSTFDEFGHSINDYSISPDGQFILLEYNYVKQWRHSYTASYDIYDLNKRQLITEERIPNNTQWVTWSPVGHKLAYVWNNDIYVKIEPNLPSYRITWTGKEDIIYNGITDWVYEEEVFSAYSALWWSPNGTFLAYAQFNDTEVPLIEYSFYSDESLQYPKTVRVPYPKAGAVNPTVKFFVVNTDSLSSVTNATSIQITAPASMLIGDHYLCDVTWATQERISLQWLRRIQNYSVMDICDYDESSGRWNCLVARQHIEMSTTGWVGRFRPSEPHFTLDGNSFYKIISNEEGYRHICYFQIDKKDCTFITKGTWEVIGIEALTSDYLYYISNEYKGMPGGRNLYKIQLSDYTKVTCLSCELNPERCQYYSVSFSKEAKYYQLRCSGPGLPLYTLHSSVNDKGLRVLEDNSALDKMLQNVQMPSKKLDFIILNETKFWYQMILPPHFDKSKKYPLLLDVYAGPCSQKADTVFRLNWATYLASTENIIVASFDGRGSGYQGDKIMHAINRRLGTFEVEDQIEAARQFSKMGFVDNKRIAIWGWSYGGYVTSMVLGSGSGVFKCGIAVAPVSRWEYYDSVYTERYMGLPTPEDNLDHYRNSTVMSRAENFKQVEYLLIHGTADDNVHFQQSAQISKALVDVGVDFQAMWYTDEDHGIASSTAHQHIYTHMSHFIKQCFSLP
recorded_endpoint: IC50

                         compound_structure  experimental_value
0  N[C@@H](C[C@H](Cc1ccccc1)NCc1ccc(Cl)cc1)C(=O)N1CCCCC1            > 125 µM
1    N[C@@H](CCNCc1ccc(Cl)cc1)C(=O)N1CCCCC1              196 µM

Q: Recorded IC50 for C[C@H](C[C@H](N)C(=O)N1CCCCC1)NCc1ccc(Cl)cc1 , please?
Result: > 250 µM

* * *

assay_system: Dipeptidyl peptidase 2 (Homo sapiens)
recorded_endpoint: IC50 (nM)
Unit nM implied. Number only.

Q: Recorded IC50 for N[C@@H](CCNCc1ccc(Cl)cc1)C(=O)N1CCCCC1 , please?
Result: 0.22
